# target.desc: UniProt Q8VH20
# Sequence (Q8VH20 as listed by the source): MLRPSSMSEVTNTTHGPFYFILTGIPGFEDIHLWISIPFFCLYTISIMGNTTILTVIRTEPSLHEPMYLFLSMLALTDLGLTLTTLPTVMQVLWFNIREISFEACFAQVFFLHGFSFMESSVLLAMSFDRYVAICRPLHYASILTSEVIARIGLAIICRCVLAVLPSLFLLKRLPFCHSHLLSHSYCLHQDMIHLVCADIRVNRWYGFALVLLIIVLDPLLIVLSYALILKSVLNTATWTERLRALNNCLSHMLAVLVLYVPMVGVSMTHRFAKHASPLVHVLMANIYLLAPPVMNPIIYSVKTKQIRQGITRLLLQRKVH
# condition.summary: stereoisomer not certain
Pick one: yes (active), no (inactive)

Query string: Status in this test for "Cc1ccc(OC(=O)Cc2ccccc2)cc1" ?
Result string: yes

Query string: Outcome? "O=CC=Cc1ccccc1"
Result string: no

Query string: Can you look up the reported call for "C=CCOC(=O)Cc1ccccc1" for me?
Result string: no

Query string: Name the outcome recorded for CCCCCCC(Br)C(=O)O (configuration not stated) in the assay.
Result string: yes

Query string: Could you please tell me the result logged for "COc1ccc(C=O)cc1" in this assay?
Result string: no

Query string: Hi team, can someone confirm the assay call for CCCCC(Br)C(=O)O (configuration not stated) ?
Result string: yes

Query string: Could you check what this test reported for CCC1CCC(=O)O1 (configuration not stated) ?
Result string: no

Query string: How was "C=CCc1ccccc1" classified in this test?
Result string: no

Query string: Lab log entry: CC(C=O)Cc1ccc2c(c1)OCO2 (configuration not stated) — outcome as called in the assay?
Result string: no

Query string: For this compound, state the assay outcome: "OCc1ccc2c(c1)OCO2"
Result string: no

Query string: Dear all, I need the recorded test outcome for "CSSC" , thank you.
Result string: no

Query string: Check the results log: what was the call for "Oc1ccccc1Br" ?
Result string: no

----------
# target.desc: UniProt Q8VGJ3
# Sequence (Q8VGJ3 as listed by the source): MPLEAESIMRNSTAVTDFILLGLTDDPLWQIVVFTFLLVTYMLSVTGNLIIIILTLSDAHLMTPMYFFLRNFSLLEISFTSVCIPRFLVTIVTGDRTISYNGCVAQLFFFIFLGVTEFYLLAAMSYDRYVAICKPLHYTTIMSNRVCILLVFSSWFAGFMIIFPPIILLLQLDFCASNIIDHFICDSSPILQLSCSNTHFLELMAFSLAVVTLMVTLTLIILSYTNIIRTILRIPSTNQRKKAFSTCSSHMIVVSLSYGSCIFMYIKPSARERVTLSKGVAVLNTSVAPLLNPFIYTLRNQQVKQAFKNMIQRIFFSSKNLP
# condition.summary: stereoisomer not certain
Select the correct class. Options are active, inactive and nothing else.

Query string: Please let me know the test result on file for "O=c1cc(O)c2ccccc2o1" .
Result string: inactive

Query string: Kindly provide the recorded test outcome for the following compound: "CSSC"
Result string: inactive

Query string: Kindly provide the recorded test outcome for the following compound: "Oc1ccccc1Br"
Result string: inactive

Query string: Call for entry "COc1ccc(C=O)cc1" :
Result string: inactive

Query string: So what was the verdict on "C=CCOC(=O)Cc1ccccc1" in this test?
Result string: inactive

Query string: // outcome(item) with item = "O=CC=Cc1ccccc1"
Result string: inactive

Query string: Kindly provide the recorded test outcome for the following compound: "O=Cc1ccccc1"
Result string: active

----------
# target.desc: OR52D1 (Homo sapiens) (UniProt Q9H346)
# Sequence (Q9H346 whole entry): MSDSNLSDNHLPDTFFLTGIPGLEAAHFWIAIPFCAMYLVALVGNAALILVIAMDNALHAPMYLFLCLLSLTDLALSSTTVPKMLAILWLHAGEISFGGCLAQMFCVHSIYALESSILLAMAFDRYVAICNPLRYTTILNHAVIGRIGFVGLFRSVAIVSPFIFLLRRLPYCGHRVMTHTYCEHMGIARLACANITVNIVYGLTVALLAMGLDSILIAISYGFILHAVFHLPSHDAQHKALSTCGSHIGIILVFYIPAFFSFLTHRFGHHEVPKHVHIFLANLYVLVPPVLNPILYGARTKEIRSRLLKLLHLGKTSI
# condition.summary: stereoisomer not certain
Your response should consist of one outcome taken from YES (active), NO (inactive)

Query string: I would be grateful if you could indicate the recorded call for "COc1ccc(C=O)cc1" .
Result string: YES

Query string: I'd appreciate the recorded outcome for "C=CCc1ccc2c(c1)OCO2" from this test.
Result string: NO

Query string: Which outcome was assigned to "O=Cc1ccccc1" in this test?
Result string: YES

Query string: How was "C=CCc1ccc(OC)cc1" classified in this test?
Result string: YES

Query string: Each compound tested received a call. Report the one for CC(C=O)Cc1ccc2c(c1)OCO2 (stereo unspecified) .
Result string: YES

Query string: Short answer needed: outcome of this test for "c1ccncc1" ?
Result string: NO

----------
# target.desc: UniProt Q8VGX5
# Sequence (Q8VGX5 as listed by the source): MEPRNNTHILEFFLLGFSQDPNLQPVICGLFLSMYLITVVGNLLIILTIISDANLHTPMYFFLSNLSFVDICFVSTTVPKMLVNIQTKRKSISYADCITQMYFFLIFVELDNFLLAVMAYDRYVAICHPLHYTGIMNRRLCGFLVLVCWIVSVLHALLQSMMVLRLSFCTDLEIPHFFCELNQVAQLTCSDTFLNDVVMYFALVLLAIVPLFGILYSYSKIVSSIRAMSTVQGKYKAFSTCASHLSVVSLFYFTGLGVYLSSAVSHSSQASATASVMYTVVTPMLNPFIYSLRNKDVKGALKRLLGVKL
# condition.summary: stereoisomer not certain
endpoint: odorant receptor agonist call

# annotated cases, reported odorant receptor agonist call shown
Oc1ccccc1Br; inactive
C=C(C)C1CC=C(C=O)CC1 (stereo not drawn); inactive
C=CCc1ccccc1; inactive
OCc1ccc2c(c1)OCO2; inactive
O=Cc1ccccc1; inactive
O=c1cc(O)c2ccccc2o1; inactive
COc1ccc(C=O)cc1; inactive
CCC1CCC(=O)O1 (stereo not drawn); inactive

Query string: If you can, please state the reported odorant receptor agonist call value of CCCCCCC(Br)C(=O)O (stereo not drawn) .
Result string: inactive

Query string: Give the measured odorant receptor agonist call of "CSSC" .
Result string: inactive

Query string: Quick one: odorant receptor agonist call of "O=CC=Cc1ccccc1" ?
Result string: inactive

Query string: For "C=CCOC(=O)Cc1ccccc1" , what is its reported odorant receptor agonist call?
Result string: active

Query string: Reported odorant receptor agonist call, compound "O=Cc1ccc2c(c1)OCO2" : ____
Result string: active

----------
# target.desc: OR1A1 (Homo sapiens)
# condition.summary: stereoisomer not certain
Outcome (select one): 1 (active), -1 (inactive)

Query string: // return assay outcome for "Cc1ccccc1O"
Result string: -1

Query string: Assay result, entry "C=CCSSCC=C" — outcome?
Result string: -1

Query string: What did the test return for "COc1ccc(C=O)cc1" ?
Result string: -1

Query string: What classification did CCC(Br)C(=O)O (centres undefined) end up with in this test?
Result string: -1

Query string: # lookup: test call for "SCc1ccco1"
Result string: -1

Query string: Name the outcome recorded for "CCOC(=O)Cc1ccccc1" in the assay.
Result string: 1

Query string: Would you mind telling me which call this test gave "O=C(O)Cc1ccccc1" ?
Result string: -1

Query string: Can you look up the reported call for "O=C([O-])Cc1ccccc1" for me?
Result string: -1

Query string: Per the records of this test, what outcome belongs to CCCC(Br)C(=O)O (centres undefined) ?
Result string: -1

----------
# target.desc: UniProt Q9WVN5
# Sequence (Q9WVN5 as listed by the source): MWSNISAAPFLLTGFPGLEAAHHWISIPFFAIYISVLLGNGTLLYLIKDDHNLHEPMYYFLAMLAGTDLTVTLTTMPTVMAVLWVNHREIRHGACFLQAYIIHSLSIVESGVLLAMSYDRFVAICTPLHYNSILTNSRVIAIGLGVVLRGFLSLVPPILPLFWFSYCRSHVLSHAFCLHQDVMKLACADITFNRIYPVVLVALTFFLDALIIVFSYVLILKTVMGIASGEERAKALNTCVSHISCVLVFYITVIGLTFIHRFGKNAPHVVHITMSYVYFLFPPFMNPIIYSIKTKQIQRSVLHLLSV
# condition.summary: stereoisomer not certain
// allowed return values: active, inactive

Query string: GET /call?item= CCC1CCC(=O)O1 (centres undefined) returns the recorded outcome of this test.
Result string: inactive

Query string: Hi, do you know how "O=c1cc(O)c2ccccc2o1" came out in this test?
Result string: inactive

Query string: Kindly provide the recorded test outcome for the following compound: "C=CCOC(=O)Cc1ccccc1"
Result string: active

Query string: Short answer needed: outcome of this test for "C=CCc1ccccc1" ?
Result string: inactive

----------
# target.desc: UniProt Q9EPN9
# Sequence (whole entry): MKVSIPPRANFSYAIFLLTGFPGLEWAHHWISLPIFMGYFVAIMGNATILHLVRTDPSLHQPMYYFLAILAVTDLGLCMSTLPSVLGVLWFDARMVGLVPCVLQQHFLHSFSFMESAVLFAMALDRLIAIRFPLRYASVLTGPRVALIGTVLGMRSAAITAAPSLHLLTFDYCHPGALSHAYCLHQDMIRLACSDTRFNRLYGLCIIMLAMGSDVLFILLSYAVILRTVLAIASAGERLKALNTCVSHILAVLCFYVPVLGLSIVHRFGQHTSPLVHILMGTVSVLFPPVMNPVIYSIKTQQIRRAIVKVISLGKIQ
# condition.summary: stereoisomer not certain
endpoint: odorant receptor agonist call

CCC1CCC(=O)O1 (centres undefined); inactive
C=CCc1ccccc1; inactive
O=c1cc(O)c2ccccc2o1; inactive

----------
# target.desc: UniProt Q8VG01
# Sequence (Q8VG01 as listed by the source): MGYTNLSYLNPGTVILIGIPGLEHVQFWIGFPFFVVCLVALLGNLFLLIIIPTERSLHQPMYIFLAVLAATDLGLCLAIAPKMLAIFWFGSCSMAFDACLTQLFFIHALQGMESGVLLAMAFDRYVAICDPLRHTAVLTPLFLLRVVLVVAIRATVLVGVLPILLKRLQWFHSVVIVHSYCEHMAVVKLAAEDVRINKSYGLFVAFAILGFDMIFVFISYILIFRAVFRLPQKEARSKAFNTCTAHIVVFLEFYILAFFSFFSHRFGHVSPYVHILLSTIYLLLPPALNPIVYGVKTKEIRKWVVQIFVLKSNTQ
# condition.summary: stereoisomer not certain
endpoint: odorant receptor agonist call

Worked set:
CCCCC(Br)C(=O)O (stereo not given); inactive
C=CCc1ccccc1; inactive
CCC1CCC(=O)O1 (stereo not given); inactive
O=c1cc(O)c2ccccc2o1; inactive
CC(C=O)Cc1ccc2c(c1)OCO2 (stereo not given); inactive
O=Cc1ccc2c(c1)OCO2; inactive

Query string: Fill in: odorant receptor agonist call of "Oc1ccccc1Br" is ___
Result string: inactive

Query string: Which measured odorant receptor agonist call value corresponds to "OCc1ccc2c(c1)OCO2" ?
Result string: inactive

Query string: I'd like to know its odorant receptor agonist call. The molecule in question is "CSSC"
Result string: inactive

Query string: Reported odorant receptor agonist call for "C=CCOC(=O)Cc1ccccc1" : what is it?
Result string: inactive

----------
# target.desc: UniProt Q8VGB9
# Sequence (Q8VGB9 as listed by the source): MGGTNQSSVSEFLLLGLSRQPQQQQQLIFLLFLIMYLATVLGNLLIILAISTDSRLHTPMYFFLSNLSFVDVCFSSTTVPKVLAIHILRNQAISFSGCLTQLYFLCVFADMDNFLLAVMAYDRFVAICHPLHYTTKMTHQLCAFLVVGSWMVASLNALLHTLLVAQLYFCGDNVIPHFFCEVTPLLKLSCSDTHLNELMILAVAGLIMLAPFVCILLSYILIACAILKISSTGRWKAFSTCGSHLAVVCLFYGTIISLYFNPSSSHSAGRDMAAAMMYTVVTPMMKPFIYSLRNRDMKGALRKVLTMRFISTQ
# condition.summary: stereoisomer not certain
endpoint: odorant receptor agonist call

See these solved cases before continuing.
O=Cc1ccccc1; inactive
C=CCOC(=O)Cc1ccccc1; inactive
CCCCCCC(Br)C(=O)O (centres undefined); inactive
Cc1ccc(OC(=O)Cc2ccccc2)cc1; inactive
O=CC=Cc1ccccc1; inactive
CC(C=O)Cc1ccc2c(c1)OCO2 (centres undefined); inactive
CCCCC(Br)C(=O)O (centres undefined); inactive
O=c1cc(O)c2ccccc2o1; inactive

Switching to the query record.
Query string: Which odorant receptor agonist call reading was recorded for the molecule "CSSC" ?
Result string: inactive

----------
# target.desc: OR1A2 (Homo sapiens)
# condition.summary: stereoisomer not certain
Could you please pick one outcome from this set? active, inactive

Query string: Hi team, can someone confirm the assay call for CCCCC(Br)C(=O)O (stereo unspecified) ?
Result string: inactive

Query string: What call does the record list for CCC(Br)C(=O)O (stereo unspecified) ?
Result string: inactive

Query string: I would be grateful if you could indicate the recorded call for "ClC=CCl" .
Result string: inactive

Query string: Per the assay record, what outcome was assigned to "C=CCOC(=O)Cc1ccccc1" ?
Result string: inactive

Query string: Outcome? CC(C=O)Cc1ccc2c(c1)OCO2 (stereo unspecified)
Result string: active

Query string: Test call, this compound: "O=C([O-])Cc1ccccc1"
Result string: inactive

----------
# target.desc: UniProt A2ATE5
# Sequence (A2ATE5 as listed by the source): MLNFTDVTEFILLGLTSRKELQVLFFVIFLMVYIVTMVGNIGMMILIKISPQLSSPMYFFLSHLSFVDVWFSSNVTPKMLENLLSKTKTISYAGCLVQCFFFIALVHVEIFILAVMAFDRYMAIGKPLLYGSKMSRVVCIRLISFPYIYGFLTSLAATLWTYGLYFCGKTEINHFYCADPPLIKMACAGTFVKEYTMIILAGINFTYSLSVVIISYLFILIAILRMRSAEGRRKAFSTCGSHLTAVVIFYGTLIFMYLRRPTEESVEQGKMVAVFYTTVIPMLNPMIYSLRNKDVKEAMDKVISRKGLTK
# condition.summary: stereoisomer not certain
endpoint: odorant receptor agonist call

Answered cases to consult:
Oc1ccccc1Br; inactive
C=CCOC(=O)Cc1ccccc1; inactive
CCCCC(Br)C(=O)O (stereo not drawn); inactive
OCc1ccc2c(c1)OCO2; inactive
O=Cc1ccc2c(c1)OCO2; inactive

Query string: Record lookup: for UniProt A2ATE5, what odorant receptor agonist call belongs to "Cc1ccc(OC(=O)Cc2ccccc2)cc1" ?
Result string: inactive

Query string: Provide value of odorant receptor agonist call for this record tested with UniProt A2ATE5: "CSSC"
Result string: inactive

Query string: Provide value of odorant receptor agonist call for this record tested with UniProt A2ATE5: C=C(C)C1CC=C(C=O)CC1 (stereo not drawn)
Result string: inactive
